# Tested on: rat hepatic microsomes
# ASSAY: Stimulation of adrenochrome formation (superoxide generation) in rat hepatic microsomal incubations
# SETTINGS: SOD (superoxide dismutase) 5 μg/mL added
PROPERTY: adrenochrome formation in presence of SOD

COMPOUND	REPORTED MEASUREMENT
Cc1c2oc3c(C)c(O)c(N)c(C(=O)NC4C(=O)NC(C(C)C)C(=O)N5CCCC5C(=O)N(C)CC(=O)N(C)C(C(C)C)C(=O)OC4C)c3nc-2c(C(=O)NC2C(=O)NC(C(C)C)C(=O)N3CCCC3C(=O)N(C)CC(=O)N(C)C(C(C)C)C(=O)OC2C)c(N)c1=O (centres unmarked) [4a, 7-Hydroxy-8-amino-actinomycin D]	inhibited
Cc1nc2c(C(=O)NC3C(=O)NC(C(C)C)C(=O)N4CCCC4C(=O)N(C)CC(=O)N(C)C(C(C)C)C(=O)OC3C)c3nc4c(C(=O)NC5C(=O)NC(C(C)C)C(=O)N6CCCC6C(=O)N(C)CC(=O)N(C)C(C(C)C)C(=O)OC5C)c(N)c(=O)c(C)c-4oc3c(C)c2o1 (centres unmarked)	inhibited
